B1: AUP1 (parent)
chain: FCASTRLPPTPLLLFPEEEATNGR

Variants of: B1
MEASUREMENT DESCRIPTION: protein stability index of a GFP-peptide fusion (GPS, HEK-293T) (PSI 1-6); higher = more stable;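 further: lentivirally expressed fusions sorted by FACS into six bins by GFP to DsRed ratio, PSI derived from sequencing read proportions per bin multiplied by bin number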
MEASUREMENT PARAMETERS: c terminus: a fixed tail appended
RECORDED ENDPOINT: protein stability index
Format: numeric value only, no unit, no commentary.

The examples below pair each entry with its known result.
Request: Given `P9L` , state its recorded protein stability index.
Response: 2.11

Request: Given `F1W` , state its recorded protein stability index.
Response: 3.74

Request: Given `E18C` , state its recorded protein stability index.
Response: 2.18

Request: Given `A3C` , state its recorded protein stability index.
Response: 2.78

Request: Given `P16V` , state its recorded protein stability index.
Response: 1.8

Request: Given `L7K` , state its recorded protein stability index.
Response: 2.89

Now consider a different variant.
Request: Given `N22H` , state its recorded protein stability index.
Response: 2.95
